Values were extracted from patent US4137227A.

- Tested on: Strep. pyogens
OBSERVATION TYPE: MIC (µg/mL)
The reply should contain only the number, in µg/mL.

Please review the following examples before continuing.
[[record]]
smiles_repr = "CCn1cc(C(=O)O)c(=O)c2ccc(N=NN3CCN(C)CC3)cc21"
val = 125

[[record]]
smiles_repr = "CCCn1cc(C(=O)O)c(=O)c2ccc(N=NN(CC)CC)cc21"
val = 62.5

[[record]]
smiles_repr = "CN(C)N=Nc1ccc2c(=O)c(C(=O)O)cn(C)c2c1"
val = 62.5


Name the reported MIC value associated with the compound `CCn1cc(C(=O)O)c(=O)c2ccc(N=NN(C)C)cc21`
125

Name the reported MIC value associated with the compound `CCCn1cc(C(=O)O)c(=O)c2ccc(N=NN(C)C)cc21`
31.3
